- Assay protocol: qHTS for Inhibitors of ATXN expression: Validation (AID 588378); note: nearly all actives have a fitted effect of over 75% in size
- Stated conditions: cell-based ATXN2 expression reporter assay, luminescence; series mostly up to 57.1 µM
Records with an inconclusive call do not appear. Calls of active or inactive are those of the source. Calls come from the whole dose curve; as a rule, active = well fitted inhibition curve with a large enough effect; inconclusive = small, poorly fitted or top-dose-only effect; inactive = no such curve, though single readings can be large or run the other way.
Outcomes: True (active), False (inactive)

INSERT INTO assay_data (compound, answer_label) VALUES
  ('CC(C)=CCOc1c2occc2cc2ccc(=O)oc12', 'False'),
  ('NCC(CC(=O)O)c1ccc(Cl)cc1 (stereo unspecified)', 'False'),
  ('NN=C(N)N', 'False'),
  ('Cc1cccc(C)c1NC1=NCCCS1', 'False'),
  ('CCCN1CCC[C@@H]2Cc3[nH]ncc3C[C@H]21', 'False'),
  ('CCCC(C)(COC(N)=O)COC(=O)NC(C)C (stereo unspecified)', 'False'),
  ('CCCN1CCC[C@@H]2Cc3nc(N)ncc3C[C@H]21', 'False'),
  ('CC(O)(CS(=O)(=O)c1ccc(F)cc1)C(=O)Nc1ccc(C#N)c(C(F)(F)F)c1 (stereo unspecified)', 'False'),
  ('CC[C@@H](CO)NC(=O)[C@@H]1C=C2c3cccc4[nH]cc(c34)C[C@H]2N(C)C1', 'False'),
  ('COc1ccc(C(CN(C)C)C2(O)CCCCC2)cc1 (stereo unspecified)', 'False'),
  ('Nc1ccncc1', 'False'),
  ('c1ccc(C2CC2)c(OCC2=NCCN2)c1', 'False'),
  ('CNCCC(Oc1ccc(C(F)(F)F)cc1)c1ccccc1 (stereo unspecified)', 'True'),
  ('CCC1(C2=NCCN2)Cc2ccccc2O1 (stereo unspecified)', 'False'),
  ('N#CC(C#N)=Cc1ccc(O)c(O)c1', 'False'),
  ('CC(=O)[C@H]1CC[C@H]2[C@@H]3CC[C@H]4C[C@](C)(O)CC[C@]4(C)[C@H]3CC[C@]12C', 'False');
